# TARGET: Retinoic acid receptor RXR-alpha (Homo sapiens) (UniProt P19793)
# Sequence (P19793 whole entry, looked up): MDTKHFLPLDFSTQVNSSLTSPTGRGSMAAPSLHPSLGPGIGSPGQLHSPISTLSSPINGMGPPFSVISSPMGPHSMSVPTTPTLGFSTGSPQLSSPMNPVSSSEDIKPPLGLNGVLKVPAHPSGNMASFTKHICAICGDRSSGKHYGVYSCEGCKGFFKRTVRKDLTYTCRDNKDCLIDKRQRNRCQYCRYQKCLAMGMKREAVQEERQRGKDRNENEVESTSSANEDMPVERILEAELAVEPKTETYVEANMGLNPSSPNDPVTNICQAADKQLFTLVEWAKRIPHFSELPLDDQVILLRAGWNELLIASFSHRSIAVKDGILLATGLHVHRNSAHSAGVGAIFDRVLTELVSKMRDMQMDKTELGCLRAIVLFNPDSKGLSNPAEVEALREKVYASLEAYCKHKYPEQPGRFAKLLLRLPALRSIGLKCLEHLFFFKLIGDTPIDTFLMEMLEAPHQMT
# PROTOCOL_DESCRIPTION: OT_NURR1_NURR1RXRa_1440: Odyssey Thera (OT) 24-hour HEK293T Protein Complementation Assay for Nurr1/retinoid X receptor (RXR) (AID 2283386)
Inconclusive results are not listed. The source made the active and inactive calls. How the source made its calls: active means hit-call score of the fitted dose curve at least 0.9, where 1 is the maximum; inconclusive means response in the unintended direction; inactive means score below 0.9.
Answer with one of the outcomes Y for active, N for inactive

Recorded results for 5 molecules are shown here.
MOLECULE	LABEL_VALUE
CCCCCCOC(=O)c1ccccc1O	N
C(=C(c1ccccc1)c1ccccc1)c1ccccc1	Y
CC(Cc1ccc(O)c(O)c1)C(C)Cc1ccc(O)c(O)c1 (stereo unspecified)	N
Cc1ccc(S(=O)(=O)NCl)cc1	N
CCCCCCC(C)OC(=O)CCCCC(=O)OC(C)CCCCCC (stereo unspecified)	N

Hi, sorry to bother you, what did the test record for C1COCCN1 ?
N

---

# Read-out: Transforming growth factor beta 1 (TGFb1), TGFB1 (gene 7040)
# PROTOCOL_DESCRIPTION: BSK_BE3C_TGFb1: BioMAP Diversity Plus: BE3C Assay for Transforming growth factor beta 1 (TGFb1) Biomarker Activity (AID 2283036)
# CONDITION_NOTES: primary human bronchial epithelial cells; actives raise or lower the signal
Activity calls are given as the source filed them. How the source made its calls: active means hit-call score of the fitted dose curve at least 0.9, where 1 is the maximum; inactive means score below 0.9.
Answer with one of the outcomes active, inactive

Recorded results for 5 compounds are shown here.
COMPOUND	LABEL_VALUE
Oc1ccc(Nc2ccccc2)cc1	active
CCCCCCC(C)OC(=O)CCCCC(=O)OC(C)CCCCCC (stereo not drawn)	inactive
CS(C)(=O)=O	inactive
CC(CCl)OP(=O)(OC(C)CCl)OC(C)CCl (stereo not drawn)	inactive
CCc1ccc(C(c2ccc(CC)cc2)C(Cl)Cl)cc1	inactive

Hi, sorry to bother you, what did the test record for CCCCOCCOCCOC(=O)CCCCC(=O)OCCOCCOCCCC ?
inactive

Hi, sorry to bother you, what did the test record for CCCCNc1ccccc1 ?
inactive

Hi, sorry to bother you, what did the test record for CCc1c(Br)c(Br)c(Br)c(Br)c1Br ?
inactive

Hi, sorry to bother you, what did the test record for C#C[C@]1(O)CC[C@H]2[C@@H]3CCc4cc(OC)ccc4[C@H]3CC[C@@]21C ?
inactive

Hi, sorry to bother you, what did the test record for CCN(CC)c1ccc2c(C)cc(=O)oc2c1 ?
inactive

Hi, sorry to bother you, what did the test record for Nc1ccc([N+](=O)[O-])cc1O ?
inactive

Hi, sorry to bother you, what did the test record for CO[Si](OC)(c1ccccc1)c1ccccc1 ?
inactive

Hi, sorry to bother you, what did the test record for CCCCCCCCCCCCCCCC[N+](C)(C)Cc1ccccc1 ?
active

---

# Read-out: Human Leukocyte Antigen - DR isotype (HLADR), HLA-DRA (gene 3122)
# PROTOCOL_DESCRIPTION: BSK_BE3C_HLADR: BioMAP Diversity Plus: BE3C Assay for Human Leukocyte Antigen - DR isotype (HLADR) Biomarker Activity (AID 2283032)
# CONDITION_NOTES: primary human bronchial epithelial cells; actives raise or lower the signal
Activity calls are given as the source filed them. The calls were made as follows: active = hit-call score of the fitted dose curve at least 0.9, where 1 is the maximum; inactive = score below 0.9.
Answer with one of the outcomes active, inactive

Recorded results for 5 molecules are shown here.
MOLECULE	LABEL_VALUE
O[Si](c1ccccc1)(c1ccccc1)c1ccccc1	inactive
CCCCCCCCC(F)(F)C(F)(F)C(F)(F)C(F)(F)C(F)(F)C(F)(F)F	inactive
FC(F)(F)C(F)(F)C(F)(F)N(C(F)(F)C(F)(F)C(F)(F)F)C(F)(F)C(F)(F)C(F)(F)F	inactive
CCCCCCCCCCCCCCCC[N+](C)(C)Cc1ccccc1	active
O=C(O)C(F)(OC(F)(F)C(F)(OC(F)(F)C(F)(OC(F)(F)C(F)(F)C(F)(F)F)C(F)(F)F)C(F)(F)F)C(F)(F)F (stereo not drawn)	inactive

Hi, sorry to bother you, what did the test record for C=C(C)C(=O)OCCC(F)(F)C(F)(F)C(F)(F)C(F)(F)C(F)(C(F)(F)F)C(F)(F)F ?
inactive

Hi, sorry to bother you, what did the test record for CCCCCCC(C)OC(=O)CCCCC(=O)OC(C)CCCCCC (stereo not drawn) ?
inactive

Hi, sorry to bother you, what did the test record for C=CC/C=C/C/C=C/C/C=C/C ?
inactive

Hi, sorry to bother you, what did the test record for CCO[Si](CCC(F)(F)C(F)(F)C(F)(F)C(F)(F)C(F)(F)C(F)(F)F)(OCC)OCC ?
inactive

Hi, sorry to bother you, what did the test record for CCCCNc1ccccc1 ?
inactive

Hi, sorry to bother you, what did the test record for COC(=O)CCC(F)(F)C(F)(F)C(F)(F)C(F)(F)F ?
inactive

Hi, sorry to bother you, what did the test record for FC(F)(F)C(F)(F)CNCC(F)(F)C(F)(F)F ?
inactive

Hi, sorry to bother you, what did the test record for C#C[C@]1(O)CC[C@H]2[C@@H]3CCc4cc(OC)ccc4[C@H]3CC[C@@]21C ?
active

Hi, sorry to bother you, what did the test record for FC1CC(F)(F)C(F)(F)C1(F)F (stereo not drawn) ?
inactive

Hi, sorry to bother you, what did the test record for O=C(O)C(F)(OC(F)(F)C(F)(OC(F)(F)C(F)(F)C(F)(F)F)C(F)(F)F)C(F)(F)F (stereo not drawn) ?
inactive

Hi, sorry to bother you, what did the test record for FC(F)(Br)C(F)(F)C(F)(F)C(F)(F)C(F)(F)C(F)(F)Br ?
inactive

Hi, sorry to bother you, what did the test record for C=CC(=O)OCC(F)(F)C(F)(F)C(F)(F)C(F)(F)C(F)(F)C(F)(F)C(F)(F)F ?
inactive

Hi, sorry to bother you, what did the test record for C=CC(F)(F)C(F)(F)C(F)(F)C(F)(F)C(F)(F)C(F)(F)C(F)(F)C(F)(F)C=C ?
inactive
